Sourced from the SangsterLogP compilation

recordedMetric: logP

Consider the following illustrative entries.
molecularString: CCOC(=O)Oc1cccc2cccnc12
logP: 1.73
--
molecularString: N#Cc1ccccn1
logP: 0.5
--
molecularString: Nc1cccc2nccnc12
logP: 1.29
--
molecularString: CSc1cnc2ccccc2n1
logP: 2.79

[a] Cc1cccc(C#N)n1
[b] O=S(=O)(c1ccccc1)c1ccc2ncccc2c1
Enquiry: Between item a and item b , which reported logP is smaller? Please reply using the label of the selected record.
Return: a
(a: 0.84, b: 2.57)

[1] Cc1cnc(C)cn1
[2] CCC(=O)Nc1ccnc2cc(Cl)ccc12
Enquiry: Between item 1 and item 2 , which reported logP is smaller? Please reply using the label of the selected record.
Return: 1
(1: 0.63, 2: 2.73)

###

recordedMetric: logP

Consider the following illustrative entries.
molecularString: CN(C)c1ccncc1
logP: 1.34
//
molecularString: N#Cc1ccnc2ccccc12
logP: 1.98
//
molecularString: Nc1cnc2ccccc2c1
logP: 1.63

[A] O=[N+]([O-])c1cnc2ccccc2c1
[B] Cc1cnccn1
[C] O=COc1ccccc1
[D] Cc1ccc2c(c1)N(O)C=CN2O
[E] Nc1cnccn1
Enquiry: Sort entries by logP from minimum to maximum value. List the labels in the requested order.
Return: D, E, B, C, A

###

recordedMetric: logP

Consider the following illustrative entries.
molecularString: Clc1cccnc1
recordedValue: 1.33
--
molecularString: Cc1cccc2nccnc12
recordedValue: 2.04
--
molecularString: CC(=O)Nc1ccc2ncccc2c1
recordedValue: 1.55
--
molecularString: Clc1ccc2ccccc2n1
recordedValue: 2.71
--
molecularString: CN(C)c1ccc2cccnc2c1
recordedValue: 2.71
--
molecularString: CC(=O)Nc1cnc2ccccc2c1
recordedValue: 1.92
--
molecularString: CN(C)c1cccc2cccnc12
recordedValue: 2.73
--
molecularString: CS(=O)(=O)c1cnc2ccccc2n1
recordedValue: 0.79

[A] Cc1cnc2ccccc2n1
[B] CC(=O)c1cccnc1
Enquiry: Between item A and item B , which reported logP is smaller? Please reply using the label of the selected record.
Return: B

[P] CC(=O)Nc1cccnc1
[Q] CCOc1ccc2nccnc2c1
[R] O=[N+]([O-])c1cccnc1
Enquiry: Sort entries by logP from minimum to maximum value. List the labels in the requested order.
Return: P, R, Q

[P] COc1ccncc1
[Q] O=[N+]([O-])c1ccnc2ccccc12
[R] O=[N+]([O-])c1ccccn1
Enquiry: Order the items by recorded logP; the first position goes to the largest value. List the labels in the requested order.
Return: Q, P, R
(Q: 2.06, P: 1, R: 0.48)

[a] CC(=O)c1ccc2ccccc2n1
[b] Nc1cnc2ccccc2n1
[c] Cc1cc(C#N)ccn1
Enquiry: Sort entries by logP from minimum to maximum value. List the labels in the requested order.
Return: c, b, a
(c: 0.81, b: 1.5, a: 2.54)

[a] CCOC(=O)c1cccc2cccnc12
[b] CC(=O)c1ccnc2cc(Cl)ccc12
Enquiry: Between item a and item b , which reported logP is smaller? Please reply using the label of the selected record.
Return: a
(a: 1.83, b: 2.62)

[A] COc1ccc2cccnc2c1
[B] Cc1ccc([N+](=O)[O-])cn1
Enquiry: Consider A and B . Which of these has its logP at a higher number? Please reply using the label of the selected record.
Return: A
(A: 2.37, B: 0.99)

[A] Clc1ccc2nccnc2c1
[B] CC(=O)Nc1cccc2ncccc12
Enquiry: Between item A and item B , which reported logP is smaller? Please reply using the label of the selected record.
Return: B

[a] Clc1cnc2ccccc2n1
[b] Nc1ccc2nccnc2c1
Enquiry: Consider a and b . Which of these has its logP at a higher number? Please reply using the label of the selected record.
Return: a

###

recordedMetric: logP

[I] Brc1ccc2cccnc2c1
[II] Nc1ccnc2ccccc12
Enquiry: Consider I and II . Which of these has its logP at a higher number? Please reply using the label of the selected record.
Return: I

[A] N#Cc1ccc2nccnc2c1
[B] Clc1cccc2nccnc12
Enquiry: Between item A and item B , which reported logP is smaller? Please reply using the label of the selected record.
Return: A

[1] CC(=O)c1ccccn1
[2] COc1cnc2ccccc2n1
Enquiry: Consider 1 and 2 . Which of these has its logP at a higher number? Please reply using the label of the selected record.
Return: 2
(2: 2.31, 1: 0.83)

###

Overview of reported logP across a group of compounds:
Format: numeric value only, no unit, no commentary.

Consider the following illustrative entries.
molecularString: COC(=O)c1ccncc1
recordedMetric: logP
recordedValue: 0.87
//
molecularString: N#Cc1ccncc1
recordedMetric: logP
recordedValue: 0.46

Now look at this entry.
Enquiry: Determine its reported logP: `N#Cc1cccnc1`
Return: 0.36
